Each entry below carries its recorded interaction score.
- measured-target: T1, 4H993-AA
- T1 chain: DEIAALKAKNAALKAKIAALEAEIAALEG
- experiment-summary: two-hybrid library CCmax;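 also: natural log of median RNA to DNA barcode read ratio; higher means stronger binding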
- measurement-parameters: mean of both orientations

binder	interaction score
DKNAALKAEIAALEAENAALEAKIAALKG [4H3606-AA]	1.33
DEIAALKAKNAALEAEIAALKAEIAALKG [4H906-AA]	-0.00106
DKIAALKAEIAALEAEIAALKAKNAALEG [4H2575-AA]	-0.15
DKIAALKAKNAALEAEIAALEAKIAALEG [4H2949-AA]	1.65
